Let's look at some molecules and their measured Percent Effect.
- test target: AMP-activated protein kinase, AMPK (Homo sapiens) (UniProt P54646+O43741+P54619+Q9UGJ0+Q9Y478+Q13131+Q9UGI9)
- experimental details: AMP-dependent Kinase enzyme assay. An in vitro enzyme assay that detects ADP turnover that is directly proportional to AMPK activity. This uses naive AMPK that is activated during the assay with MK-8722
- Format: functional
- Parameters: scale not given: direction of the effect not stated beside the values
- assay conditions: 30 µM
API: value field is a number in %; no unit string.

{"columns": ["molecule", "Percent Effect / %"],
 "data": [
  ["CC(C)N(C)C(=O)C1=NOC2(CCN(C(=O)c3ccccn3)C2)C1 (stereo not given)", -0.462],
  ["Cn1cc(CN2CCCn3cnc(CN4CCCC4=O)c3C2)cn1", 4.3],
  ["O=C1CC(c2cccc(O)c2)c2c(c(C(=O)O)cn2-c2ccccc2)N1 (stereo not given)", -385],
  ["CCn1cc(NC(=O)C2CCN(CCOC(C)C)CC2)cn1", -2.47],
  ["Cc1cnn(CCC(=O)N2CCCC(c3nc(C)no3)C2)c1 (stereo not given)", -8.95]
]}

Give its Percent Effect value. Item: CCc1noc(CNc2cc(F)ccc2OCC2CCCO2)n1 (stereo not given)
-4.16

Let us now turn to `COc1ccc2c(c1)CN(Cc1nc3ccsc3c(=O)[nH]1)CC2`
-0.628

---

Let's look at some molecules and their measured Percent Effect.
- test target: Tyrosyl-tRNA synthetase, putative (Trypanosoma cruzi (strain CL Brener)) (UniProt Q4DSP6)
- Sequence (Q4DSP6 as listed by the source): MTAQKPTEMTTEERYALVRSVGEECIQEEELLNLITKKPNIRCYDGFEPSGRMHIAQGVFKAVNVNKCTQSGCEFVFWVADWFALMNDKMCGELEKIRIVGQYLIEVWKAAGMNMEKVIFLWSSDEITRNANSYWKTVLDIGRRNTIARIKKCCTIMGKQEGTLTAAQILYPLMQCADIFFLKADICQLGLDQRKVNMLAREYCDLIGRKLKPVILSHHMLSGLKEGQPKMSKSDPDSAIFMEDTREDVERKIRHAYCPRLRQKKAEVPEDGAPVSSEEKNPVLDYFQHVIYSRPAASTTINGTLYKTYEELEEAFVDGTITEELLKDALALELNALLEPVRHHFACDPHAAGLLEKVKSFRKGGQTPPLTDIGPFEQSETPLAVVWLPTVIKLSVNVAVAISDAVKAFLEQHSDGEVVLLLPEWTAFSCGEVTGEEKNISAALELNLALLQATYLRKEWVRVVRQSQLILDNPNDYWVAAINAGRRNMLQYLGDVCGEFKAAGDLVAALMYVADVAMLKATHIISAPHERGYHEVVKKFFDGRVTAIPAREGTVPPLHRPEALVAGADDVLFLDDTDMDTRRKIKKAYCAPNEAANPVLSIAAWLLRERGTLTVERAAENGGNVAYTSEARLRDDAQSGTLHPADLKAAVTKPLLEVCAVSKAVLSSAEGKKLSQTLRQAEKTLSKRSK
- experimental details: Trypanosoma cruzi tyrosyl tRNA synthetase (TcYRS) SOP
- Type: functional
- Parameters: scale not given: direction of the effect not stated beside the values
- assay conditions: 30 µM
API: value field is a number in %; no unit string.

# annotated cases, reported Percent Effect shown
{"columns": ["molecule", "unit label", "measured number"],
 "data": [
  ["O=C(c1n[nH]c2c1CCN(Cc1nccs1)C2)N1CCCC1", "%", 6.17],
  ["CS(=O)(=O)N1CCC(NC(=O)COc2ccc(Cl)c(Cl)c2)CC1", "%", 28.2],
  ["Cn1cnc2c1CCN(Cc1noc(-c3ccccc3)n1)C2", "%", 11.1]
]}

Give its Percent Effect value. Item: COCCC(=O)N1CCCC2(CCC(=O)N2CCOC)CC1 (stereo unspecified)
2.5

Let us now turn to CCn1nc(C)c(CCNC(=O)C2CCCN(CC(N)=O)C2)c1C (stereo unspecified)
17.1

Let us now turn to CCc1nc(CN(C)C2CCN(CCS(C)(=O)=O)C2)no1 (stereo unspecified)
17.9

---

- test target: Sialic acid-binding Ig-like lectin 9 (Homo sapiens)
- experimental details: Hs-Siglec9 ALPHAscreen SOP 20170721
- Parameters: scale not given: direction of the effect not stated beside the values
- assay conditions: 10 µM
reported endpoint: Percent Effect
Number first, unit second: that is the form wanted.

{"columns": ["compound", "Percent Effect"],
 "data": [
  ["CCS(=O)(=O)CC(=O)NC(c1ccc(F)cc1)C1CCCC1 (configuration not stated)", "2.49%"],
  ["Cn1cc(CN2CCc3c(nc(-c4ccccn4)[nH]c3=O)C2)cn1", "5.72%"],
  ["CC1CCN(c2ncc3c(n2)CN(c2ccccc2)C3=O)CC1", "2.67%"]
]}

Give its Percent Effect value. Item: `O=C(c1ccc[nH]1)N1C[C@H]2CC[C@@H]1CN(c1ncccn1)C2`
11.1%

Let us now turn to COc1ccc(C)cc1C(C)NC(=O)NCCCn1cncn1 (configuration not stated)
1.49%

Let us now turn to CC(C)NC(=O)CC1COC2(CCN(Cc3ccccc3)CC2)C1 (configuration not stated)
-1.95%

Let us now turn to CC(C(=O)NCCCn1ccnc1)n1cc(Br)cn1 (configuration not stated)
7.47%

Let us now turn to `CCNC(=O)CCN1CCC(c2cc(N3CCOCC3)nc(C)n2)CC1`
12.8%

Let us now turn to CCN1CC2(CC1=O)CN(Cc1cccs1)CCN(C(=O)C(C)C)C2 (configuration not stated)
-2.56%

Let us now turn to `Cn1cnc2c1CCN(Cc1noc(-c3ccccc3)n1)C2`
14.2%

Let us now turn to `CCn1nc2c(cc1=O)CN(Cc1nc(CCOC)no1)CC2`
-1.28%

Let us now turn to `Cc1nc(CN2C(=O)CC[C@@H]3[C@H]2CCN3C(=O)NC2CC2)cs1`
-11.1%

---

- test target: Proteasome subunit beta (Trypanosoma cruzi) (UniProt O96673)
- Sequence (whole entry): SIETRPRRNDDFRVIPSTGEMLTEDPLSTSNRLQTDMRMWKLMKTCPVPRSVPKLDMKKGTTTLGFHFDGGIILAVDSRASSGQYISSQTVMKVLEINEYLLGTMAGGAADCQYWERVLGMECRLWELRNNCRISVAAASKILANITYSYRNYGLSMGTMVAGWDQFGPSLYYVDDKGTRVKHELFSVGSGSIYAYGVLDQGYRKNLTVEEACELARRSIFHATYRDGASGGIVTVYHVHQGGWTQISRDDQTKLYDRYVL
- experimental details: Trypanosoma cruzi proteasome chymotrypsin-like activity (TcProtChymo) assay. Also: in the data most compounds retested in dose-response had high values.
- Type: functional
- Parameters: scale not given: direction of the effect not stated beside the values
- assay conditions: 9.37 µM
reported endpoint: Percent Effect (%)
API: value field is a number in %; no unit string.

{"columns": ["molecule", "Percent Effect, %"],
 "data": [
  ["Cc1cnc2n1CCN(C)C21CCN(C(=O)CC(C)C)CC1", 8.38],
  ["CCC(C)NC(=O)N1CCCn2cnc(CO)c2C1 (stereo not given)", 4.54],
  ["Cc1ncsc1CCC(=O)N1CCCC[C@H](N(C)C)C1", 13.7]
]}

Give its Percent Effect value. Item: O=C(C1CCOC1)N1CC[C@@H](O)[C@@H]1Cc1ccccc1 (stereo not given in full)
6.09

Let us now turn to `CCc1cc(C(=O)N2CCC(Nc3ccc(C)nn3)CC2)sc1C`
2.8

Let us now turn to O=C1CC(c2ccncc2)C2(CCN(CCO)CC2)N1 (stereo not given)
8.91

---

- test target: Sialic acid-binding Ig-like lectin 9 (Homo sapiens)
- experimental details: Hs-Siglec9 ALPHAscreen SOP 20170721
- Parameters: scale not given: direction of the effect not stated beside the values
- assay conditions: 10 µM
Let's look at some molecules and their measured Percent Effect.
API: value field is a number in %; no unit string.

{"columns": ["molecule", "unit label", "Percent Effect"],
 "data": [
  ["O=S(=O)(NCC1(O)CCOc2ccccc21)c1ccc(Br)s1 (centres undefined)", "%", -1.37],
  ["N#Cc1ccnc(N2CCN(C(=O)Cc3ccc4c(c3)CCO4)CC2)c1", "%", 4.19],
  ["Cn1c(CC2CCS(=O)(=O)C2)nnc1SCCOc1ccccc1F (centres undefined)", "%", 12.8],
  ["COCc1nc(C(=O)NS(=O)(=O)c2ccc(C)cc2C)cs1", "%", 4.98],
  ["COc1cccc2c1ccn2CCNC(=O)C(C)C", "%", 3.44],
  ["CC(C)(C)c1cn2nc(N3CCC[C@@H]3CO)sc2n1", "%", -1.69],
  ["Cc1cc(C(N)=O)ccc1NC(=O)c1nc(N2CCCC2)ncc1Cl", "%", -1.27],
  ["Cc1nsc(NC(=O)N2CCC(C(C)(C)O)CC2)n1", "%", -1.81],
  ["c1ccc(-c2cnc(CNCC3CCCN3c3cccnn3)o2)cc1 (centres undefined)", "%", -5.27],
  ["Cc1nc(COC[C@@H]2CCC[C@@]23CNCCO3)cs1", "%", -6]
]}

Form field - read-out: Percent Effect; system: Sialic acid-binding Ig-like lectin 9 (Homo sapiens); submitted item: `O=C(CCCc1nnc(-c2ccccc2)o1)N1CCN(CCO)CC1`
8.28

Let us now turn to `CCNc1cc2c(nn1)CCN(C(=O)c1ccc(CNC(C)=O)o1)C2`
4.09

Let us now turn to `O=C(Cc1c[nH]c2ccccc12)N1CCC(Nc2cccnn2)CC1`
5.29

---

- test target: Ubiquitin-activating enzyme e1, putative (Leishmania donovani (strain BPK282A1)) (UniProt E9BSI1)
- Sequence (E9BSI1 as listed by the source): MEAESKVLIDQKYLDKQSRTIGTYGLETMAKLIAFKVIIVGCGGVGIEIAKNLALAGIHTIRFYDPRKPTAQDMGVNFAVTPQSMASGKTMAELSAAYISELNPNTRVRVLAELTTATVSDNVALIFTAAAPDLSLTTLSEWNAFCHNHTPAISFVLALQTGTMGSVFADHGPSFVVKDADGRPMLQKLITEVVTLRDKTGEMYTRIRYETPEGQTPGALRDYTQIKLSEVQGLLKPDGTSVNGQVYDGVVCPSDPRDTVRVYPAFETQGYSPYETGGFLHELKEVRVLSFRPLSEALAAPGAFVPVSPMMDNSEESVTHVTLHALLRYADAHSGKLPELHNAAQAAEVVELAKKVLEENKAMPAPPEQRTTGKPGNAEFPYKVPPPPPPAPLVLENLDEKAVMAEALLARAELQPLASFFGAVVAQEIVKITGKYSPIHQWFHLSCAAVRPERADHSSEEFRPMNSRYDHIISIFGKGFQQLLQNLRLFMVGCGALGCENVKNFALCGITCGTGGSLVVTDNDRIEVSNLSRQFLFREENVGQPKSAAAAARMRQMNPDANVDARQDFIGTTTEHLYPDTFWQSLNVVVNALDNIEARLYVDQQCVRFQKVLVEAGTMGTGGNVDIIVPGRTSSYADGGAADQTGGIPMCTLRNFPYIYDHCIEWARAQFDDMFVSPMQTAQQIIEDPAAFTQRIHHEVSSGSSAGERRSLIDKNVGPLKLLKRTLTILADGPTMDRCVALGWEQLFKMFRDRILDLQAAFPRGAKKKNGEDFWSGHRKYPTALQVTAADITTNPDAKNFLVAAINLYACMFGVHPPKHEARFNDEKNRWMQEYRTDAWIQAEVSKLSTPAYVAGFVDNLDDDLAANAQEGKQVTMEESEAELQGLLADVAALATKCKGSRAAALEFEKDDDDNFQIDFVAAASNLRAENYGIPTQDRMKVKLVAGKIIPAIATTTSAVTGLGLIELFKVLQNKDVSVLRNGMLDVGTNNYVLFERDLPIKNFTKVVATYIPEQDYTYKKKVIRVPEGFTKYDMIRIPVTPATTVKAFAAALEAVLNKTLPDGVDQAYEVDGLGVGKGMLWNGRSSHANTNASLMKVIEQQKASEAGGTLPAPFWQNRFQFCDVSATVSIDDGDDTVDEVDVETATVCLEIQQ
- experimental details: Leishmania donovani Ubiquitin Activating Enzyme (LdE1)
- Assay type: functional
- Set-up: scale not given: direction of the effect not stated beside the values
- assay conditions: 30 µM
Potency and affinity values are given separately.
reported endpoint: Percent Effect
Number first, unit second: that is the form wanted.

{"columns": ["compound", "Percent Effect"],
 "data": [
  ["CC(NC(=O)N1CCN(CCc2ccccc2)CC1)c1nncn1C (stereo not drawn)", "5.33%"],
  ["Cc1nc(C)n(C2CCCN(C(=O)CCCn3ccnc3)C2)n1 (stereo not drawn)", "0%"],
  ["CCc1nccn1C1CCCN(C(=O)Cc2cn3ccccc3n2)C1 (stereo not drawn)", "8.86%"],
  ["Cc1cnc(CN(C)C2CCN(CC(=O)Nc3nncs3)C2)o1 (stereo not drawn)", "22.8%"],
  ["CN(Cc1cn2ccccc2c1C#N)C1CCCN(c2cccnn2)C1 (stereo not drawn)", "-15.6%"],
  ["CCN(CC)C(=O)c1nnc2ccc(N3CCOCC3)cc2n1", "9.33%"],
  ["Cc1cc(C)c2cc(CNCc3ccccc3)c3nn(C)c(=O)n3c2c1", "9.46%"],
  ["COc1ccnc(C(=O)N2CCCC(c3noc(C)n3)C2)c1 (stereo not drawn)", "-7.59%"]
]}

Next up:
Give its Percent Effect value. Item: `O=C(c1cc(F)ccc1F)C1CCN(C(=O)c2ccc(=O)[nH]n2)CC1`
13%
